Method: counter assay for TAg ATPase ADP read-out – biochemical, ADP-Hunter, fluorescence, counter-screen (AID 2501);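 further: purified T antigen ATPase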
Applied Conditions: series mostly up to 100 µM
Among all 2,200 compounds or so, about 1,200 (55%) were called active. Cut-off not given; nearly all actives show IC50 up to about 92 µM. So high a share suggests a set chosen from earlier hits. This is one part of the list.
Possible outcomes: label 1 = active, label 0 = inactive

Compound: Oc1ccc(-c2nc(-c3ccc(F)cc3)c(-c3ccncc3)[nH]2)cc1
Group: label 1

Compound: O=[N+]([O-])c1cc([N+](=O)[O-])c2cccnc2c1Oc1ccccc1O
Group: label 1

Compound: O=C(N/N=C/c1ccc(O)c(O)c1)c1cccc(S(=O)(=O)N2CCCC2)c1
Group: label 1

Compound: CC(NCC(=O)Nc1cc(S(=O)(=O)N2CCCCCC2)ccc1Cl)c1ccccc1 (stereo not given)
Group: label 0

Compound: CC(C)(C)c1ccc(C(=O)n2cnc3ccccc32)cc1
Group: label 0

Compound: C/C=C/C=C/C(=O)Nc1cccc(C2=NOC3(C2)C[C@H](C(N)=O)N(C(=O)CC(c2ccccc2)c2ccccc2)C3)c1 (stereo not given in full)
Group: label 0

Compound: CCNC(=O)NC(=O)C(C)OC(=O)c1cc(S(=O)(=O)N2CCCCCC2)ccc1OC (stereo not given)
Group: label 0

Compound: COc1ccc(C2C3=C(N=C4SCC(=O)N42)c2ccccc2CC3)cc1 (stereo not given)
Group: label 0

Compound: O=C(Nc1ccccc1F)c1coc(=O)c(Br)c1
Group: label 0

Compound: c1nc2sc3c(c2c2nnnn12)CCC3
Group: label 0

This collection of values is drawn from PubChem BioAssay AID2501.
